Target: T1, HLA-A*01:01 (human)
T1 construct: Peptide-receptive MHC class I monomer: a UV-sensitive peptide (not specified) is cleaved and exchanged with the test peptide
Test: UV peptide exchange, anti-b2m ELISA; exchange yield grade
Can you tell me peptide exchange yield for the items I'm about to list?

Given the entry RADEEQASF , report its measured peptide exchange yield.
20 to 50%

Same lookup for LIDSLLLLL , please.
50 to 75%

Same thing, different binder: YSSEIWDLY
≥ 75%

// next record EAAPNIMHY
20 to 50%
